Provide the reported growth inhibition of each item.
- TEST METHOD NOTES: NCI Yeast Anticancer Drug Screen. Data for the bub3 strain (AID 167)
- SETTINGS: S. cerevisiae bub3 mutant strain, at 50.0 µM, hits give high values
- Experimental: Growth inhibition of yeast strains with defined genetic alterations is measured as a screen for potential anti-cancer activity. Selected strains with alterations in DNA damage repair or cell cycle control were exposed to compounds and growth inhibition was measured relative to vehicle treated controls. The strain used in this assay is bub3
About 79,000 compounds went through this panel and 15% of them were active in at least one assay; those are over-represented in the sample as a whole.
Numbers only, in %.

# annotated cases, reported growth inhibition shown
>>> experimental_result("CN1CCCS/C1=C1/SC(=S)N(c2ccccc2)C1=O")
-28.1
>>> experimental_result("Cc1cc2c3c(nc2c2cc[nH]c(C)c12)CCCC3")
90.8
>>> experimental_result("COc1ccc(-c2c(C(=O)O)cc(O)c3c(OC)c(OC)c(OC)cc23)cc1OC")
2.7
>>> experimental_result("CC(C(=O)O)/C(=C\\c1ccc2c(c1)OCO2)C(=O)O (stereo unspecified)")
12.9
>>> experimental_result("N#C/C(=C\\c1ccc(Cl)cc1)c1nc2ccccc2c(=O)[nH]1")
1.8

Next:
Supply measured growth inhibition of CCCCCCCCCCCCCCCC(C)O (stereo unspecified) in your reply.
-43.5

---

- TEST METHOD NOTES: NCI Yeast Anticancer Drug Screen. Data for the mlh1 rad18 strain (AID 175)
- SETTINGS: S. cerevisiae mlh1 rad18 strain growth inhibition; at 50.0 µM; hits give high values
About 79,000 compounds went through this panel and 15% of them were active in at least one assay; those are over-represented in the sample as a whole.
MEASURED ATTRIBUTE: growth inhibition (%)
One number for each entry, in %.

>>> experimental_result("CC(C)OP(=O)(OC(C)C)C1C(P(=O)(OC(C)C)OC(C)C)C(F)(F)C1(F)F (stereo not given)")
14.3
>>> experimental_result("Cc1ccc(S(=O)(=O)C(=S)SCc2ccccc2)cc1")
33
>>> experimental_result("CC(=O)Nc1ccc(/C=C2/C(=O)ON=C2C)cc1")
13.4

Hi there! I need growth inhibition for each item below, if you can.
1. N#CC1CCN(Cc2ccccc2)C(C#N)C1 (stereo not given)
2. O=[N+]([O-])c1ccc(Cn2on2-c2ccccc2)cc1
3. C[C@H]1C(=O)CCC2[C@]3(C)CC4OC(=O)C5(CC[C@@]6(C)CCC(C)(C)CC6C45C)C3CC[C@@]21C (stereo not given in full)

3.25
-23.9
-15

Hi there! I need growth inhibition for each item below, if you can.
1. Cc1ccc(/C=N/NC(=O)c2ccc(C)cc2)cc1
2. Nc1ccc2ncc(NCc3ccc(F)cc3)nc2c1
3. c1ccc(-c2ccccc2-c2ccccc2-c2ccccc2)cc1

[-11.9, 5.15, -12.3]

---

- TEST METHOD NOTES: NCI Yeast Anticancer Drug Screen. Data for the mec2-1 strain (AID 157)
- SETTINGS: S. cerevisiae mec2-1 strain, at 50.0 µM, hits give high values
Compounds without any hit were thinned out: in the full panel of roughly 79,000, 15% have a hit.
Provide the reported growth inhibition of each item.
Answers are plain numbers, in %.

>>> experimental_result("CC(C(=O)O)c1ncnn1-c1ccccc1 (stereo unspecified)")
41
>>> experimental_result("O=C(Cn1c2c(c3ccccc31)CCCC2)N1CCCCC1")
-74
>>> experimental_result("COc1ccc2c3c([nH]c2c1[N+](=O)[O-])C(C)N(C)CC3 (stereo unspecified)")
7.5
>>> experimental_result("CC(O)(C(=O)c1ccccc1)c1ccccc1 (stereo unspecified)")
-25.1

Hi there! I need growth inhibition for each item below, if you can.
1. O=C(C[n+]1ccccc1)N/N=C(/CCC(=O)N(Cc1ccccc1)Cc1ccccc1)CC(=O)c1ccccc1
2. O=C(NN(C(=O)c1ccc([N+](=O)[O-])cc1)c1ccccc1)c1ccc([N+](=O)[O-])cc1

-21.8
14.2

Hi there! I need growth inhibition for each item below, if you can.
1. CC1(C)Oc2ccc3c(=O)cc(-c4ccccc4)oc3c2C1C(=O)O (stereo unspecified)
2. CC(=O)OC1CC(c2ccccc2)N(C)C(c2ccccc2)C1 (stereo unspecified)

-14.5
-8

Hi there! I need growth inhibition for each item below, if you can.
1. CCN(CC)CCOc1ccccc1C(C)C
2. O=[N+]([O-])c1ccc(C[Se]c2ncnc3c2ncn3C2OC(CO)C(O)C2O)cc1 (stereo unspecified)

1: 7.5; 2: -7

Supply measured growth inhibition of `CCOC(=O)C(Cc1cccc2ccccc12)(NC(C)=O)C(=O)OCC` in your reply.
-4.55
